Please respond with reported Selectivity Ratio (SR) (MDCK II/MDCK II B1) for every item in the list.
- System: MDCK II and MDCK II B1 cell lines
- Test protocol: Selective toxicity towards MDCK II and MDCK II B1 cell lines
- Format: cell-based, canine
- Condition notes: MDCK II versus MDCK II B1
Give bare numbers.

// known answers, use as guide
>>> measured("COc1ccc(CNCc2cc([N+](=O)[O-])c3cccnc3c2O)cc1OC")
16.1
>>> measured("Cl.Oc1c(CN2CCCC2)ccc2cccnc12 [NSC693871, reference compound]")
4.4
>>> measured("Cl.Oc1c(CNCc2ccccc2F)cc(Cl)c2cccnc12")
8.3
>>> measured("C/C(=N\\Nc1ccc2ccc(CN3CCCCC3)c(O)c2n1)c1ccccn1")
9.5
>>> measured("COc1ccc(CNCc2cc([N+](=O)[O-])c3cccnc3c2O)cc1")
8.0
>>> measured("COc1ccc(CNCc2cc(S(C)(=O)=O)c3cccnc3c2O)c(OC)c1")
8.9

Field: Selectivity Ratio (SR) (MDCK II/MDCK II B1). Fill in for each record below.
1. COc1ccc(CNCc2cc(Br)c3cccnc3c2O)c(OC)c1
2. COc1ccc(CNCc2cc(Br)c3cccnc3c2O)cc1OC
3. COc1ccccc1CNCc1cc([N+](=O)[O-])c2cccnc2c1O
4. COc1ccc(CNCc2cc(Cl)c3cccnc3c2O)c(OC)c1

[16.8, 9.4, 17.1, 8.0]

Would you mind listing Selectivity Ratio (SR) (MDCK II/MDCK II B1) for each of the following compounds?
1. CCN(CC)Cc1ccc2cccnc2c1O [NSC693872, 7-(N,N-diethylaminomethyl)quinolin-8-ol, reference compound]
2. Cc1ccc2ccc(C3NCCc4sccc43)c(O)c2n1 (stereo not drawn)

1: 3.1; 2: 10.0
